Each recorded value in this set is attributed to patent US20110229450A1.

test system: Apo-TrzNcc3.2; test: Saturation of Apo-TrzNcc3.2 with Zn^2+; type: binding; settings: read-out: ZnCl2 concentration at which half maximal activity was recovered
pEC50: −log10 of the molar value.
measured.property: pEC50

In [3]: df
Out[3]:
   sample_smiles         system  numeric_value
0         [Zn+2]  Apo-TrzNcc3.2           5.59
